system: MILI (PIWIL2) piRISC loaded with piRNA #1 (26 nt); experiment: pre-steady-state target cleavage rate (min^-1); guide: piRNA #1 5'p-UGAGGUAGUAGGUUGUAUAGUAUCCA; MIWI and MILI are mouse PIWI proteins and EfPiwi is from a freshwater sponge; tags in brackets are library labels; higher = faster piRNA-guided slicing of the target; conditions: auxiliary factor: 500 nM mouse GTSF1;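 also: 1 nM active piRISC with 0.1 nM target library at 33 °C single turnover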
Rule: Yes for pre-steady-state target cleavage rate not less than 0.07, No for anything less.

| seq-text | assigned-class |
| --- | --- |
| GGAGACCAUACUAUACAACGUACUUCCUCA | No |
| GGAGAGGAUACUAAACAUCCUACUACCUCA | Yes |
| GGAGUGGAUACUAUACAACCUACUCACCUCA | Yes |
| GGAGUGGAUACUAUACAACCUACUACGUGA | No |
| GGAGAGGAUACUAUACAACCUACUACGAGA | No |
| GGAGACCAUACUUUAGAACCUACUACCUCA | Yes |
| GGAGACGAUACUAUACAACCUUCUACCACA | No |
| GGAGACCUAUCUAUACAACCUAGAACCUCA | No |
